# Assay Method Text: Single oral dose pharmacokinetic study, fed or fasted
# Measurement Context: both, Beagle, dog, plasma, oral, 8 mg/kg, F% (absolute oral bioavailability), oral 8 mg/kg fasted vs IV 2 mg/kg
Measured Attribute: bioavailability (%)
One number for each entry, in %.

Ask | For the molecule shown here, NS(=O)(=O)c1ccc(N2N=C(C(F)(F)F)C[C@H]2c2ccc(F)cc2F)cc1 (racemic) , give the reported bioavailability.
Reply | 44

====

# Assay Method Text: Single oral dose pharmacokinetic study, fed or fasted
# Measurement Context: both, Beagle, dog, plasma, po, 8 mg/kg, t1/2, single oral 8 mg/kg enflicoxib, fed, harmonic mean
Measured Attribute: half-life (min)
Give bare numbers, in min.

Ask | // query half-life value for entry NS(=O)(=O)c1ccc(N2N=C(C(F)(F)F)C[C@H]2c2ccc(F)cc2F)cc1 (racemic)
Reply | 1180

====

# Assay Method Text: In vitro blood to plasma partitioning
# Measurement Context: female, Beagle, dog, whole blood
Measured Attribute: blood plasma ratio at 60 min, 5 µg/ml
One number for each entry.

Ask | Using the record for NS(=O)(=O)c1ccc(N2N=C(C(F)(F)F)C[C@H]2c2ccc(F)cc2F)cc1 (racemic) [Enflicoxib] , report its blood plasma ratio at 60 min, 5 µg/ml.
Reply | 0.66

====

# Assay Method Text: Multiple dose oral toxicokinetic (target animal safety) study
# Measurement Context: both, Beagle, dog, plasma, po, 20 mg/kg, Cmax, group 5X (40 + 20 mg/kg), week 1, mean ± SD
Measured Attribute: Cmax (µg/mL)
Numbers only, in µg/mL.

Ask | Given the entry NS(=O)(=O)c1ccc(N2N=C(C(F)(F)F)C[C@H]2c2ccc(F)cc2F)cc1 (racemic) , report its measured Cmax.
Reply | 9.59

====

# Assay Method Text: Multiple dose oral toxicokinetic (target animal safety) study
# Measurement Context: both, Beagle, dog, plasma, po, 4 mg/kg, AUC168, group 1X, week 13, mean ± SD
Measured Attribute: AUC (ng·h/mL)
Give bare numbers, in ng·h/mL.

Ask | For NS(=O)(=O)c1ccc(N2N=C(C(F)(F)F)C[C@H]2c2ccc(F)cc2F)cc1 (racemic) [Enflicoxib] , what is its reported AUC?
Reply | 47600

====

# System: plasma proteins
# Assay Method Text: In vitro plasma protein binding (rapid equilibrium dialysis)
# Type: in vitro ADME
# Measurement Context: pH 7.4, dog plasma, 160, 400 and 1600 ng/ml (0.4, 1, 4 µM), 37°C, mean values
Measured Attribute: fraction unbound at 4 h

Ask | Can you share its fraction unbound at 4 h? I mean this compound: NS(=O)(=O)c1ccc(N2N=C(C(F)(F)F)C[C@H]2c2ccc(F)cc2F)cc1 (racemic) [Enflicoxib]
Reply | 0.0099 to 0.0262

====

# Assay Method Text: Multiple dose oral toxicokinetic (target animal safety) study
# Measurement Context: both, Beagle, dog, plasma, po, 24 mg/kg, Cmax, group 3X (12 + 24 mg/kg as printed), week 1, mean ± SD
Measured Attribute: Cmax

Ask | If you can, please state the reported Cmax value of NS(=O)(=O)c1ccc(N2N=C(C(F)(F)F)C[C@H]2c2ccc(F)cc2F)cc1 (racemic) .
Reply | 6050 ng/mL

====

# Assay Method Text: Multiple dose oral toxicokinetic (target animal safety) study
# Measurement Context: both, Beagle, dog, plasma, po, 12 mg/kg, Cmax, group 3X, week 13, mean ± SD
Measured Attribute: Cmax (ng/mL)
Numbers only, in ng/mL.

Ask | # lookup: Cmax of NS(=O)(=O)c1ccc(N2N=C(C(F)(F)F)C[C@H]2c2ccc(F)cc2F)cc1 (racemic)
Reply | 2760

====

# Assay Method Text: In vitro blood to plasma partitioning
# Measurement Context: female, Beagle, dog, whole blood
Measured Attribute: blood plasma ratio at 60 min, 1 µg/ml
One number for each entry.

Ask | Please give the measured blood plasma ratio at 60 min, 1 µg/ml for this compound: NS(=O)(=O)c1ccc(N2N=C(C(F)(F)F)C[C@H]2c2ccc(F)cc2F)cc1 (racemic)
Reply | 1.07

====

# Assay Method Text: Multiple dose oral toxicokinetic (target animal safety) study
# Measurement Context: both, Beagle, dog, plasma, po, 4 mg/kg, Cmax, group 1X (8 + 4 mg/kg weekly oral), week 1, mean ± SD, n=8
Measured Attribute: Cmax
Write down the value, and be sure its unit follows.

Ask | May I ask what Cmax has been recorded for NS(=O)(=O)c1ccc(N2N=C(C(F)(F)F)C[C@H]2c2ccc(F)cc2F)cc1 (racemic) ?
Reply | 2020 ng/mL

====

# Assay Method Text: Multiple dose oral toxicokinetic (target animal safety) study
# Measurement Context: both, Beagle, dog, plasma, po, 4 mg/kg, AUC168, group 1X, week 31, mean ± SD
Measured Attribute: AUC (ng·h/mL)
Numbers only, in ng·h/mL.

Ask | Using the record for NS(=O)(=O)c1ccc(N2N=C(C(F)(F)F)C[C@H]2c2ccc(F)cc2F)cc1 (racemic) , report its AUC.
Reply | 64000

====

# Assay Method Text: Multiple dose oral toxicokinetic (target animal safety) study
# Measurement Context: both, Beagle, dog, plasma, po, 20 mg/kg, Cmax, group 5X, week 13, mean ± SD
Measured Attribute: Cmax (µg/mL)
One number for each entry, in µg/mL.

Ask | Tell me the measured Cmax of NS(=O)(=O)c1ccc(N2N=C(C(F)(F)F)C[C@H]2c2ccc(F)cc2F)cc1 (racemic) [Enflicoxib] , please.
Reply | 4.39

====

# Assay Method Text: Multiple dose oral toxicokinetic (target animal safety) study
# Measurement Context: both, Beagle, dog, plasma, po, 8 mg/kg, AUC168, group 1X, week 1, mean ± SD
Measured Attribute: AUC (ng·h/mL)
Give bare numbers, in ng·h/mL.

Ask | Give its AUC value. Item: NS(=O)(=O)c1ccc(N2N=C(C(F)(F)F)C[C@H]2c2ccc(F)cc2F)cc1 (racemic) [Enflicoxib]
Reply | 87900

====

# Assay Method Text: Multiple dose oral toxicokinetic (target animal safety) study
# Measurement Context: both, Beagle, dog, plasma, po, 4 mg/kg, Cmax, group 1X, week 13, mean ± SD
Measured Attribute: Cmax (ng/mL)
One number for each entry, in ng/mL.

Ask | I have this compound here, NS(=O)(=O)c1ccc(N2N=C(C(F)(F)F)C[C@H]2c2ccc(F)cc2F)cc1 (racemic) , and I need its recorded Cmax.
Reply | 878

====

# Assay Method Text: Single intravenous dose pharmacokinetic study
# Measurement Context: both, Beagle, dog, plasma, iv, 2 mg/kg
Measured Attribute: Vd (L/kg)
Give bare numbers, in L/kg.

Ask | What value of measured Vd is listed for NS(=O)(=O)c1ccc(N2N=C(C(F)(F)F)C[C@H]2c2ccc(F)cc2F)cc1 (racemic) ?
Reply | 4

====

# Assay Method Text: Single oral dose pharmacokinetic study, fed or fasted
# Measurement Context: both, Beagle, dog, plasma, po, 8 mg/kg, t1/2, single oral 8 mg/kg enflicoxib, fasted, harmonic mean
Measured Attribute: half-life
Mention the unit after the number when you answer.

Ask | Any idea what its half-life is? The molecule is NS(=O)(=O)c1ccc(N2N=C(C(F)(F)F)C[C@H]2c2ccc(F)cc2F)cc1 (racemic) [Enflicoxib]
Reply | 18.3 h

====

# Assay Method Text: In vitro blood to plasma partitioning
# Measurement Context: female, Beagle, dog, whole blood
# Procedure: Whole blood was obtained from 3 untreated female Beagle dogs (located in Isoquimen SL, Sant Feliu de Codines, Barcelona, Spain) and pooled into two different batches. Lithium heparin was used as anticoagulant. […] The haematocrit (H), percent of total blood cells in whole blood samples (v/v), was determined before the assay. […] The quantification of each test item in plasma was performed using calibration curves ranging from 0.05 to 20 µg/ml. […]
Measured Attribute: blood plasma ratio at 60 min, 15 µg/ml
Numbers only.

Ask | Returns the measured blood plasma ratio at 60 min, 15 µg/ml for the input compound. Input: NS(=O)(=O)c1ccc(N2N=C(C(F)(F)F)C[C@H]2c2ccc(F)cc2F)cc1 (racemic) [Enflicoxib]
Reply | 0.66

====

# Assay Method Text: Single intravenous dose pharmacokinetic study
# Measurement Context: both, Beagle, dog, plasma, iv, 2 mg/kg
Measured Attribute: clearance (mL/min/kg)
Numbers only, in mL/min/kg.

Ask | I am curious: what clearance value has been reported for NS(=O)(=O)c1ccc(N2N=C(C(F)(F)F)C[C@H]2c2ccc(F)cc2F)cc1 (racemic) [Enflicoxib] ?
Reply | 2.33
